The following compounds are listed with their measured IC50 values.
Assay: Binding affinity at delta opioid receptor in guinea pig brain by [3H]c[D-Pen2, p-Cl-Phe4, D-Pen5]-enkephalin displacement.

Entry smiles | Result unit | IC50
CC[C@H](C)[C@@H]1NC(=O)[C@H](CCCN=C(N)N)NC(=O)[C@H](CCCN=C(N)N)NC(=O)[C@H](NC(=O)[C@H](Cc2ccccc2)NC(=O)CNC(=O)CNC(=O)[C@@H](N)Cc2ccc(O)cc2)C(C)(C)SSC(C)(C)[C@H](C(N)=O)NC(=O)[C@@H]2CCCN2C(=O)[C@H](CCCN=C(N)N)NC1=O | nM | 1910
CC[C@H](C)[C@@H]1NC(=O)[C@H](CCCN=C(N)N)NC(=O)[C@H](CCCN=C(N)N)NC(=O)[C@@H](NC(=O)[C@H](Cc2ccccc2)NC(=O)CNC(=O)CNC(=O)[C@@H](N)Cc2ccc(O)cc2)C(C)(C)SSC[C@H](C(N)=O)NC(=O)[C@@H]2CCCN2C(=O)[C@H](CCCN=C(N)N)NC1=O | nM | 232
